- assayed target: Tubulin
- run description: Inhibition of tubulin polymerization in Homo sapiens (human) solid tumor cells
quantity name: pIC50
Please give only the number in your answer, with no unit.

smiles string	pIC50
COc1ccc(/C=C\c2cc(OC)c(OC)c(OC)c2)nc1	5.52

Could you tell me which pIC50 is on file for COc1cnc(/C=C\c2cc(OC)c(OC)c(OC)c2)cn1 ? 5.05

Could you tell me which pIC50 is on file for COc1ccc(OCc2cc(OC)c(OC)c(OC)c2)cc1O ? 4.65

Could you tell me which pIC50 is on file for COc1ccc(/C=C(/C#N)c2cc(OC)c(OC)c(OC)c2)cc1N ? 5

Could you tell me which pIC50 is on file for COc1ccc(/C=C(/C#N)c2cc(OC)c(OC)c(OC)c2)cc1 ? 5.22
